tested on: Tetranychus urticae; assay: Acaricidal activity against Tetranychus urticae (two-spotted spider mite) in kidney bean leaf assessed as mortality at 500 ppm at 25 degC measured after 5 days; type: functional; settings: 120 h
mortality at 500 ppm: recorded values
Please format your answer as a value with the unit trailing.

In the examples that follow, each entry is paired with its recorded mortality at 500 ppm.
1) CCc1cc(C(=O)NCc2ccc(C(C)(C)C)cc2)nn1C    0%
2) Cc1nc(C)c(C(=O)NCc2ccc(C(C)(C)C)cc2)s1    100%
3) CCn1cc(C(=O)NCc2ccc(C(C)(C)C)cc2)c(C)n1    100%

# input molecule: `Cc1nn(C)cc1C(=O)NCc1ccc(C(C)(C)C)cc1` ; wanted: its mortality at 500 ppm
100%

# input molecule: `CCn1ncc(C(=O)NCc2ccc(C(C)(C)C)cc2)c1C` ; wanted: its mortality at 500 ppm
0%

# input molecule: `CCc1cc(C(=O)NCc2ccc(C(C)(C)C)cc2)n(C)n1` ; wanted: its mortality at 500 ppm
100%

# input molecule: `CCn1nc(C)cc1C(=O)NCc1ccc(C(C)(C)C)cc1` ; wanted: its mortality at 500 ppm
0%

# input molecule: `Cc1ncsc1C(=O)NCc1ccc(C(C)(C)C)cc1` ; wanted: its mortality at 500 ppm
30%

# input molecule: `CCc1nc(C)c(C(=O)N(C)Cc2ccc(C(C)(C)C)cc2)s1` ; wanted: its mortality at 500 ppm
100%

# input molecule: `Cc1cc(C(=O)NCc2ccc(C(C)(C)C)cc2)n(C)n1` ; wanted: its mortality at 500 ppm
100%
